- Read-out: Urokinase-type plasminogen activator receptor (uPAR), PLAUR (gene 5329)
- ASSAY_TEXT: BSK_4H_uPAR: BioMAP Diversity Plus: 4H Assay for Urokinase-type plasminogen activator receptor (uPAR) Biomarker Activity (AID 2283030)
- CONDITION_NOTES: primary human endothelial cells (HUVEC); actives raise or lower the signal
Activity calls are given as the source filed them. Rule for the calls: active = hit-call score of the fitted dose curve at least 0.9, where 1 is the maximum; inactive = score below 0.9.
// classify into true (active), false (inactive)

See these solved cases before continuing.
Oc1c(Br)cc(Br)cc1Br = false
CCC(C)(C#N)N=NC(C)(C#N)CC (stereo not drawn) = false
CC(C)(C)c1ccccc1O = false
O=C1C=CC(=O)c2ccccc21 = true
Oc1ccc(Cc2ccc(O)cc2)cc1 = false

Could you check what this test reported for `O=C(N[C@H]1CN2CCC1CC2)c1ccc2c(c1)OCCO2` ? false

Any idea what this test logged for `O=[N+]([O-])c1ccc(Nc2ccccc2)cc1` ? false

Query: recorded result category for `O=C(O)C1(c2ccc3c(c2)OC[C@H](Cc2ccc(-c4ccccc4)cc2)[C@H]3O)CCCC1` in this test false

Record request — test call for `c1ccc2sc(SNC3CCCCC3)nc2c1` false

Short answer needed: outcome of this test for OC(Cc1ccccc1Cl)(Cn1cncn1)C1(Cl)CC1 (stereo not drawn) ? false

Test call, this compound: `Oc1c(Cl)cc(Cl)cc1Cl` false

Recorded test call requested for `CCOP(=S)(OCC)SCS(=O)(=O)C(C)(C)C` false

Name the outcome recorded for `Cc1ccccc1OP(=O)(Oc1ccccc1C)Oc1ccccc1C` in the assay. true

---

- ASSAY_TEXT: ATG_FoxO_CIS: Attagene CIS-FACTORIAL HepG2 Assay for human Forkhead box O (FoxO) (AID 2282943)
- CONDITION_NOTES: HepG2 Attagene cis-reporter, FoxO element, mRNA; actives raise or lower the signal
Active and inactive are the calls of the source. How the source made its calls: active means hit-call score of the fitted dose curve at least 0.9, where 1 is the maximum; inactive means score below 0.9.
I would appreciate it if you answered using one of these outcomes: true (1) (active), false (0) (inactive)

O=c1oc2ccccc2c(O)c1C(CC(O)c1ccc(-c2ccc(Br)cc2)cc1)c1ccccc1 (stereo not given) = false (0)
CC(C)CC(C)(c1ccc(O)cc1)c1ccc(O)cc1 = false (0)
O=C(CBr)c1ccc(O)cc1 = false (0)

Name the outcome recorded for `O=NN1CCCCCCC1` in the assay. false (0)

Dear all, I need the recorded test outcome for `CC(=Cc1ccccc1)[N+](=O)[O-]` , thank you. true (1)

Please state the recorded outcome for this molecule: `Nc1ncn[nH]1` false (0)

Which outcome was entered for the molecule `CN(N=O)c1ccc([N+](=O)[O-])cc1` in this test? false (0)

Status in this test for `CC(c1ccccc1)(c1ccc(O)cc1)c1ccc(O)cc1` ? false (0)

Per the assay record, what outcome was assigned to `Brc1ccc(Br)cc1` ? false (0)

Which outcome was entered for the molecule OC(Cc1ccccc1Cl)(Cn1cncn1)C1(Cl)CC1 (stereo not given) in this test? false (0)

Entry `N#Cc1ccccc1Cl` : call = ? false (0)

Assay outcome for `O=C(CCl)Nc1ccccc1` : what was it? true (1)

In this assay, the call recorded for `Clc1cccc(Cl)c1Cl` was what? false (0)

Given `O=C(O)CC(O)(CC(=O)O)C(=O)O` , state the outcome it received in this test. false (0)

I would be grateful if you could indicate the recorded call for `O=NN1CCCCCC1` . false (0)

---

- ASSAY_TEXT: CEETOX_H295R_OHPROG: CeeTox H295R High-throughput Steroidogenesis Assay for OH-Progesterone (OHPROG) (AID 2283435)
- CONDITION_NOTES: actives raise or lower the signal
Active and inactive are the calls of the source. How the source made its calls: active means hit-call score of the fitted dose curve at least 0.9, where 1 is the maximum; inactive means score below 0.9.
Valid outcomes are listed here; reply with one: active, inactive

Please review the entries below; each comes with its answer.
Cc1cc(C(C)(C)c2ccc(O)c(C)c2)ccc1O = inactive
CCOP(=O)(OCC)OC(=CCl)c1ccc(Cl)cc1Cl = active

State the result this test recorded for CCCSP(=S)(OCC)Oc1ccc(SC)cc1 (configuration not stated) . active

For `CCOP(=S)(OCC)O/N=C(\C#N)c1ccccc1` , which call appears in the assay record? inactive

Just curious, what result did `Oc1cccc(-c2ccccc2)c1` get here? active

Hi, sorry to bother you, what did the test record for CC(C)=CC1C(C(=O)OCc2cccc(Oc3ccccc3)c2)C1(C)C (configuration not stated) ? active

Which outcome was entered for the compound `CC(C)(C)c1ccccc1O` in this test? inactive

---

- Read-out: Collagen III, COL3A1 (gene 1281)
- ASSAY_TEXT: BSK_hDFCGF_CollagenIII: BioMAP Diversity Plus: hDFCGF Assay for Collagen III Biomarker Activity (AID 2283056)
- CONDITION_NOTES: primary human foreskin fibroblasts; actives raise or lower the signal
Active and inactive are the calls of the source. The calls were made as follows: active = hit-call score of the fitted dose curve at least 0.9, where 1 is the maximum; inactive = score below 0.9.
Field 'call' accepts YES for active, NO for inactive

Kindly provide the recorded test outcome for the following compound: `O=[N+]([O-])c1ccc(Nc2ccccc2)cc1` NO

What did this assay record as the result for `c1ccc2sc(SNC3CCCCC3)nc2c1` ? NO

Hey, what did the test say about C#CCOC(=O)/C=C(C)/C=C/CC(C)CCCC(C)C (centres undefined) ? YES

Identify the outcome logged in this assay for the compound shown: `Clc1cccc(Cl)c1Cl` NO

---

- ASSAY_TEXT: ATG_XTT_Cytotoxicity: Cytotoxicity Assessment in the Attagene TRANS-FACTORIAL HepG2 Assay (AID 2283584)
Inconclusive results are not listed. Calls of active or inactive are those of the source. Rule for the calls: active = hit-call score of the fitted dose curve at least 0.9, where 1 is the maximum; inconclusive = response in the unintended direction; inactive = score below 0.9.
Mark one answer only. Choices: active, inactive

Consider the worked cases shown below.
N#Cc1ccc(Cl)cc1 = inactive
COC(=O)Nc1cccc(OC(=O)Nc2cccc(C)c2)c1 = inactive
CCOP(=S)(OCC)Oc1ccc(Cl)cc1Cl = inactive

Name the outcome recorded for `O=C/C(Cl)=C(/Cl)C(=O)O` in the assay. inactive

Please let me know the test result on file for `COP(=S)(OC)Oc1cc(Cl)c(I)cc1Cl` . active

Kindly provide the recorded test outcome for the following compound: `O=CCCl` inactive

Write down the call the test reported for this compound. Item: `CN(C)[C@@H]1C(=O)C(C(N)=O)=C(O)[C@@]2(O)C(=O)C3=C(O)c4c(O)ccc(Cl)c4[C@@](C)(O)[C@H]3C[C@@H]12` inactive

Assay result, entry `c1cc[c]([Sb]([c]2ccccc2)[c]2ccccc2)cc1` — outcome? inactive

---

- ASSAY_TEXT: BSK_LPS_SRB: Viability Assessment in the BioMAP Diversity Plus: LPS Assay (AID 2283079);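 note: total protein by sulforhodamine B absorbance as a cytotoxicity measure; measured one day after compound addition; fitted in both directions against DMSO so loss or gain of signal counts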
- CONDITION_NOTES: primary human HUVEC with PBMC
Activity calls are given as the source filed them. The calls were made as follows: active = hit-call score of the fitted dose curve at least 0.9, where 1 is the maximum; inactive = score below 0.9.
// classify into active, inactive

Worked examples, 5 molecules total:
CCCCN(CCCC)C(=S)[S-].CCCCN(CCCC)C(=S)[S-].[Ni+2] = inactive
OC(Cc1ccccc1Cl)(Cn1cncn1)C1(Cl)CC1 (centres undefined) = inactive
CN(C)C(=S)S = inactive
Oc1ccc(Cc2ccc(O)cc2)cc1 = inactive
c1ccc2sc(SNC3CCCCC3)nc2c1 = inactive

Can you look up the reported call for `Nc1c(Oc2ccccc2)cc(O)c2c1C(=O)c1ccccc1C2=O` for me? inactive

Would you mind telling me which call this test gave `CC1(C)[C@H](C(=O)O[C@H](C#N)c2cccc(Oc3ccccc3)c2)[C@@H]1/C=C(\Cl)C(F)(F)F` ? inactive

Given `CC(C)(C)c1cc([N+](=O)[O-])cc(C(C)(C)C)c1O` , state the outcome it received in this test. active

Hello, I am checking results. What call was entered for `O=C1C=CC(=O)c2ccccc21` ? active

---

- TARGET_UNDER_TEST: Estrogen receptor beta (Homo sapiens) (UniProt Q92731)
- Sequence (Q92731 whole entry, looked up): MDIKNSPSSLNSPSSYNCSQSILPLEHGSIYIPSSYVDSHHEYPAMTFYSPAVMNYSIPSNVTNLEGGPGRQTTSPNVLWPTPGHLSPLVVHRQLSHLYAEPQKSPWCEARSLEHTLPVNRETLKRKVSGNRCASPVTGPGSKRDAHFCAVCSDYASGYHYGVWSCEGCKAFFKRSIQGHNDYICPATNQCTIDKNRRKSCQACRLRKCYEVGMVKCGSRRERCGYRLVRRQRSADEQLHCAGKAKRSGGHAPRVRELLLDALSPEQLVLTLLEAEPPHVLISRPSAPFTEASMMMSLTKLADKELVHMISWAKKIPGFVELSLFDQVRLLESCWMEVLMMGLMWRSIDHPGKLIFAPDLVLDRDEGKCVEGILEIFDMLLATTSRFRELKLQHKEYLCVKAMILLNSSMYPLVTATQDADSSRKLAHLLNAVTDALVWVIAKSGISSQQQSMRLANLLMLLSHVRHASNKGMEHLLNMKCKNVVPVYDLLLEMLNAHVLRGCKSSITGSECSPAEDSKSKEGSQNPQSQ
- ASSAY_TEXT: OT_ER_ERbERb_0480: Odyssey Thera (OT) 8-hour HEK293T Protein-Complementation Assay for Estrogen Receptor-beta/-beta Homodimer (AID 2283357);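 note: active means signal gain over DMSO baseline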
Inconclusive results are not listed. Active and inactive are the calls of the source. The calls were made as follows: active = hit-call score of the fitted dose curve at least 0.9, where 1 is the maximum; inconclusive = response in the unintended direction; inactive = score below 0.9.
Answer with one of the outcomes given here: active, inactive

Sample answers from the record:
O=S1(=O)OC(c2cc(Br)c(O)c(Br)c2)(c2cc(Br)c(O)c(Br)c2)c2ccccc21 = active
Oc1c(Cl)cc(Cl)cc1Cl = inactive
Cc1cc(Cl)ccc1OCCCC(=O)O = inactive
O=[N+]([O-])c1ccccc1O = inactive
Cc1cc(Cl)ccc1O = active
CCOc1ccc(N)cc1 = inactive
O=C(N[C@H]1CN2CCC1CC2)c1ccc2c(c1)OCCO2 = inactive
Nc1ncn[nH]1 = inactive

Status in this test for `COCCl` ? inactive

Please indicate how the test categorized `Oc1cc(Cl)c(Cl)cc1Cl` . active

// outcome(item) with item = `Clc1cccc(Cl)c1` inactive

Could you kindly confirm the outcome this assay logged for `CC(C)N(C(=O)CCl)c1ccccc1` ? inactive

Test call for this compound, please: O=C(NC(=O)c1c(F)cccc1F)Nc1cc(Cl)c(OC(F)(F)C(F)C(F)(F)F)cc1Cl (centres undefined) inactive

# outcome recorded in this test, key = CCCSP(=S)(OCC)Oc1ccc(SC)cc1 (centres undefined) inactive
